MEASUREMENT_TARGET: UniProtKB Q14832
Sequence (Q14832 whole entry): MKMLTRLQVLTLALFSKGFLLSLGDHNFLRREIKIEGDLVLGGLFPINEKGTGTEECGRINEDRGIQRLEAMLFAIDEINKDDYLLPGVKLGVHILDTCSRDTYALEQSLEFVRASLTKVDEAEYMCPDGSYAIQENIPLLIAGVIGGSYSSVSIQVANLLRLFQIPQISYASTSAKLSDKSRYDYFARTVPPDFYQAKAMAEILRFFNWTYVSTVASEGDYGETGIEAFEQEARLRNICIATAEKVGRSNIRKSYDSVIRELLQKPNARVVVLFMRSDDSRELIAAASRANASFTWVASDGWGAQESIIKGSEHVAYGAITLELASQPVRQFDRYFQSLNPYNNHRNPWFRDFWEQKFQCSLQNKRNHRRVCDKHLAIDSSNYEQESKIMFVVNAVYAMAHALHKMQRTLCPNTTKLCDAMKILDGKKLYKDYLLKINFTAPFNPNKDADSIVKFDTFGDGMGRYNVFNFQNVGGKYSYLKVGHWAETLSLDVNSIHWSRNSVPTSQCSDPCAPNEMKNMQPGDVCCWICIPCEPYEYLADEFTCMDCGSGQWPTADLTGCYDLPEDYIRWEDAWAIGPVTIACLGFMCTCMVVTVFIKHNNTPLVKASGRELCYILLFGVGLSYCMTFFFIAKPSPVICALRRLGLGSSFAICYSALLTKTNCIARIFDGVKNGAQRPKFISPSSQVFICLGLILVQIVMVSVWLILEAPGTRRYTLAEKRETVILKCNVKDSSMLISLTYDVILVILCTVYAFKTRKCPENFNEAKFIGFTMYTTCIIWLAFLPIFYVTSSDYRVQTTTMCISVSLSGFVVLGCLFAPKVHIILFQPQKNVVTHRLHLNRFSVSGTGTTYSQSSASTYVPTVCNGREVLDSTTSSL
ASSAY_INFO: Ability to displace [3H]LY-341,495 from recombinant human Metabotropic glutamate receptor 3 expressed in RGT cells.
Collected Ki values appear next to each entry.
Respond numerically; units are nM and should not be typed.

Here are 3 compounds together with their reported answers.
Input: What does the data say about its Ki? Entry: N[C@@]1(C(=O)O)CS[C@H]2[C@H](C(=O)O)[C@H]21 (stereo in doubt; (+)-10) [LY-389795]
Output: 170

Input: Input N[C@@]1(C(=O)O)CS[C@H]2[C@H](C(=O)O)[C@H]21 (racemic) [LY-389795]
Output: 9.4

Input: Input N[C@@]1(C(=O)O)CO[C@H]2[C@H](C(=O)O)[C@H]21 (stereo in doubt; (+)-9) [LY-379268]
Output: 1040

Let us move to another entry and its Ki.
Input: What does the data say about its Ki? Entry: N[C@@]1(C(=O)O)CO[C@H]2[C@H](C(=O)O)[C@H]21 (stereo in doubt; (-)-9) [LY-379268]
Output: 5.8
